molecular target: SCRIB_3, Q14160; assay: holdup assay; parameters: key: below the threshold = too weak to quantify, mostly under pKd 3.1 to 4; conditions: plain residues with an end cap or a label only (N-terminal biotin on a linker: ado-ado)
Sequence (Q14160 999-1103): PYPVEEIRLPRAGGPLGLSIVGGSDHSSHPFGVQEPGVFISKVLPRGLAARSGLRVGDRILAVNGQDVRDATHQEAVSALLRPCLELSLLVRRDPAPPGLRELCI
PARAMETER: pKd
A bare number is all that is needed in reply.

Field: example entries. Status: answers known.
BINDER | pKd
NIAESLESLV [PTPRZ1, P23471] | 3.87
RQKEVRESKC [SCN8A, Q9UQD0] | 4.16
SRSVVESDEL [MYPN, Q86TC9] | 3.51
GIKKITSTAL [RPS6KA3, P51812] | 5.06
ELSATVTTDC [TRIP6, Q15654] | 4.24

Qu. // returns reported pKd for input PYSESDDDWC [CACNA1A, O00555]
Ans. 3.83

Qu. // returns reported pKd for input EIPAQSPTCV [FZD10, Q9ULW2]
Ans. 3.99

Qu. // returns reported pKd for input KRPEMTSSSV [MUC3A, MUC3B, Q02505;Q9H195]
Ans. 1.79

Qu. // returns reported pKd for input PSHPRLQTHV [KIRREL2, Q6UWL6]
Ans. 4.26

Qu. // returns reported pKd for input ILRKSTTTTV [PRR16, Q569H4]
Ans. 3.67

Qu. // returns reported pKd for input SLNANEVEWF [RNF130, Q86XS8]
Ans. 3.96

Qu. // returns reported pKd for input EPQYQPGENL [SRC, P12931]
Ans. 3.71

Qu. // returns reported pKd for input REEPDHSTEV [CCRL2, O00421]
Ans. 4.35

Qu. // returns reported pKd for input EDLEDEWEVI [TECPR2, O15040]
Ans. 3.84

Qu. // returns reported pKd for input SPDRDRESIV [SCN5A, Q14524]
Ans. 3.86

Qu. // returns reported pKd for input STKRKLASAV [NCF1, P14598]
Ans. 3.55

Qu. // returns reported pKd for input LESTTVGTSV [KARS1, Q15046]
Ans. 4.4

Qu. // returns reported pKd for input KSRVAFFEEL [NF2, P35240]
Ans. 3.7

Qu. // returns reported pKd for input ARGPPRESEV [FAM110D, Q8TAY7]
Ans. 4.63

Qu. // returns reported pKd for input RFQQRMQTHV [KIRREL1, Q96J84]
Ans. 4.33

Qu. // returns reported pKd for input DDASLPVSDV [PLEKHA1, Q9HB21]
Ans. 4.1

Qu. // returns reported pKd for input EDPRVEVTQF [SLC22A9, Q8IVM8]
Ans. 3.66

Qu. // returns reported pKd for input RSSGGDDFWF [KCNV1, Q6PIU1]
Ans. 4.29

Qu. // returns reported pKd for input VKRNSKETVV [MARCHF3, Q86UD3]
Ans. 4.51

Qu. // returns reported pKd for input IDESKKEWLI [CNTNAP2, Q9UHC6]
Ans. 3.71

Values from paper PMC9482650
